meta.source: paper PMC6875038

Test: Pharmacokinetics of four ginsenosides in rat plasma after oral administration of PQ-AG and PQ extracts (UPLC-MS/MS)
Format: in vivo
Conditions: PQ group: oral PQ extract 0.54 g/kg, male SD rats, n = 6, mean ± SD
measurementName: half-life (min)
Write the answer as a number in min, unit excluded.

Example cases with answers are listed next.
[[record]]
smilesrepr = "CC(C)=CCC[C@](C)(O[C@@H]1O[C@H](CO[C@@H]2O[C@H](CO)[C@@H](O)[C@H](O)[C@H]2O)[C@@H](O)[C@H](O)[C@H]1O)[C@H]1CC[C@]2(C)[C@@H]1[C@H](O)C[C@@H]1[C@@]3(C)CC[C@H](O[C@@H]4O[C@H](CO)[C@@H](O)[C@H](O)[C@H]4O[C@@H]4O[C@H](CO)[C@@H](O)[C@H](O)[C@H]4O)C(C)(C)[C@@H]3CC[C@]12C"
measurementname = "half-life"
observedresult = 937

[[record]]
smilesrepr = "CC(C)=CCC[C@](C)(O[C@@H]1O[C@H](CO)[C@@H](O)[C@H](O)[C@H]1O)[C@H]1CC[C@]2(C)[C@@H]1[C@H](O)C[C@@H]1[C@@]3(C)CC[C@H](O)C(C)(C)[C@@H]3[C@@H](O[C@@H]3O[C@H](CO)[C@@H](O)[C@H](O)[C@H]3O[C@@H]3O[C@@H](C)[C@H](O)[C@@H](O)[C@H]3O)C[C@]12C"
measurementname = "half-life"
observedresult = 488

[[record]]
smilesrepr = "CC(C)=CCC[C@](C)(O[C@@H]1O[C@H](CO)[C@@H](O)[C@H](O)[C@H]1O)[C@H]1CC[C@]2(C)[C@@H]1[C@H](O)C[C@@H]1[C@@]3(C)CC[C@H](O[C@@H]4O[C@H](CO)[C@@H](O)[C@H](O)[C@H]4O[C@@H]4O[C@H](CO)[C@@H](O)[C@H](O)[C@H]4O)C(C)(C)[C@@H]3CC[C@]12C"
measurementname = "half-life"
observedresult = 787


Pending molecule:
Input line: Consider the molecule shown here: CC(C)=CCC[C@](C)(O[C@@H]1O[C@H](CO[C@@H]2OC[C@H](O)[C@H](O)[C@H]2O)[C@@H](O)[C@H](O)[C@H]1O)[C@H]1CC[C@]2(C)[C@@H]1[C@H](O)C[C@@H]1[C@@]3(C)CC[C@H](O[C@@H]4O[C@H](CO)[C@@H](O)[C@H](O)[C@H]4O[C@@H]4O[C@H](CO)[C@@H](O)[C@H](O)[C@H]4O)C(C)(C)[C@@H]3CC[C@]12C What is its recorded half-life?
Output line: 800
